testTarget: PI3K p110 beta/p85 alpha (Homo sapiens, UniProt P42338)
Sequence (P27986 whole entry): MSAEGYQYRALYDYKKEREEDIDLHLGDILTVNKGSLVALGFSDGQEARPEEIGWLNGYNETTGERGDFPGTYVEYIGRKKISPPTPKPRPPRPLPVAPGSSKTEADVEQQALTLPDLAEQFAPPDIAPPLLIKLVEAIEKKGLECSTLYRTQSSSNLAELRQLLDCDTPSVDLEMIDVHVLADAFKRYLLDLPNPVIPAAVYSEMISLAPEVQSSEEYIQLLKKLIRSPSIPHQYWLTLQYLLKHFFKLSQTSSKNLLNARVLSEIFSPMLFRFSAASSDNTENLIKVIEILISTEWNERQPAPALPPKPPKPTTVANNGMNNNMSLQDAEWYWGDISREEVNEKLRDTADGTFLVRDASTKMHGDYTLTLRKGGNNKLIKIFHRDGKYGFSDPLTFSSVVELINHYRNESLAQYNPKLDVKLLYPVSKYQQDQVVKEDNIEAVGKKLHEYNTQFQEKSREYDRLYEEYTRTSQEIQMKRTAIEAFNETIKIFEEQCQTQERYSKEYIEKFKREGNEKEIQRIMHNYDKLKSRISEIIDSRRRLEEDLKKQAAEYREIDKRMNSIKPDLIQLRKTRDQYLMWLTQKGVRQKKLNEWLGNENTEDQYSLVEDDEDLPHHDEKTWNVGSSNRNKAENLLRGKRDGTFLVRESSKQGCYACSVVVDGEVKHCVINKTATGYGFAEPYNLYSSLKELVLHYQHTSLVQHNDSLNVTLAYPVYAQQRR
Sequence (P42338 whole entry): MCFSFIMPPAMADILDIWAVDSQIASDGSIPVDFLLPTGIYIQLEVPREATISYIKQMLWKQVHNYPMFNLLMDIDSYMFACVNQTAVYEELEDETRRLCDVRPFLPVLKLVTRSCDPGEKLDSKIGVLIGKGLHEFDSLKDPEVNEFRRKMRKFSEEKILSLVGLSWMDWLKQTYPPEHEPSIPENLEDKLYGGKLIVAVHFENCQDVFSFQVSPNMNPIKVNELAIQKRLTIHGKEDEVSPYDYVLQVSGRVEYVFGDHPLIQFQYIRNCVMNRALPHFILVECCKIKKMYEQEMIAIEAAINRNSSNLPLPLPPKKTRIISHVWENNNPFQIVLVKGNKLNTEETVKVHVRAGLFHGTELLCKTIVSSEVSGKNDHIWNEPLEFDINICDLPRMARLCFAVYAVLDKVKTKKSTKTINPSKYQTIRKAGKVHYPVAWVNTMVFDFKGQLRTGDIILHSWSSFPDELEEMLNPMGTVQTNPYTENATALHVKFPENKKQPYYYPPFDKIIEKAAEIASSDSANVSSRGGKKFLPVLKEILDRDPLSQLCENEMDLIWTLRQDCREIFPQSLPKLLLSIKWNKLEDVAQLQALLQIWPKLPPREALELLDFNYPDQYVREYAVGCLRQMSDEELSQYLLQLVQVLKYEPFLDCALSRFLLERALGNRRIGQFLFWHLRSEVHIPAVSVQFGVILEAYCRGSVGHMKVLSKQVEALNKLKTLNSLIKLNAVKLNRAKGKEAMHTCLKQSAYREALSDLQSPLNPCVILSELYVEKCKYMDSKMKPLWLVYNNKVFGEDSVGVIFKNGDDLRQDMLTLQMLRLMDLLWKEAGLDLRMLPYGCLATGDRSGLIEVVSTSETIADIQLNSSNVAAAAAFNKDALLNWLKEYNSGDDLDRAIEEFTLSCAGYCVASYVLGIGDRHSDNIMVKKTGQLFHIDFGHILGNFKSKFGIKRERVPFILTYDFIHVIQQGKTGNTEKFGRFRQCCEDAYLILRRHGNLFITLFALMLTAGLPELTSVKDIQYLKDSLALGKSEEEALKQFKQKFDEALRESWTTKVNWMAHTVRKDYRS
protocolNotes: Inhibition of N-terminal His6-tagged recombinant full-length human p110beta/untagged recombinant full length p85alpha expressed in baculovirus infected Sf21 cells using phosphatidylinositol as substrate in presence of gamma-32P-ATP after 5 mins by thin layer chromatographic method
measuredMetric: IC50

The following compounds have reported results that may help.
1) Cc1cccc2cc([C@H](C)Nc3ncnc4[nH]cnc34)n(-c3ccc(F)cc3)c(=O)c12: < 0.1 µM
2) CCc1ccccc1-n1c(Cn2nc(I)c3c(N)ncnc32)cc2cccc(C)c2c1=O: < 10 µM
3) Cc1ccccc1-n1c(Cn2nc(I)c3c(N)ncnc32)cc2cccc(C)c2c1=O: > 10 µM
4) Cc1cccc2cc(Cn3nc(C#C[C@@H](C)O)c4c(N)ncnc43)n(C3CCCC3)c(=O)c12: < 10 µM
5) Cc1cccc2cc(Cn3nc(-c4cccc(O)c4)c4c(N)ncnc43)n(-c3ccccc3F)c(=O)c12: > 10 µM
6) Cc1cccnc1-n1c(Cn2nc(-c3cc(O)cc(F)c3)c3c(N)ncnc32)cc2ccccc2c1=O: > 10 µM
7) Cc1ccccc1-n1c(Cn2nc(-c3cccc(Cl)c3)c3c(N)ncnc32)cc2cccc(C)c2c1=O: > 10 µM
8) Cc1cccc2cc(Cn3nc(-c4cc(O)cc(F)c4)c4c(N)ncnc43)n(-c3ccccc3)c(=O)c12: < 10 µM

Then there is this compound:
input: Which value of IC50 has been reported for Cc1ccccc1-n1c(Cn2nc(-c3ccc(F)c(O)c3)c3c(N)ncnc32)cc2ccccc2c1=O in the records?
output: > 10 µM

* * *

Listing of entries alongside the reported IC50.
testTarget: PI3-kinase p110-alpha/p85-alpha (Homo sapiens, UniProt P42336)
Sequence (P42336 whole entry, one chain of several): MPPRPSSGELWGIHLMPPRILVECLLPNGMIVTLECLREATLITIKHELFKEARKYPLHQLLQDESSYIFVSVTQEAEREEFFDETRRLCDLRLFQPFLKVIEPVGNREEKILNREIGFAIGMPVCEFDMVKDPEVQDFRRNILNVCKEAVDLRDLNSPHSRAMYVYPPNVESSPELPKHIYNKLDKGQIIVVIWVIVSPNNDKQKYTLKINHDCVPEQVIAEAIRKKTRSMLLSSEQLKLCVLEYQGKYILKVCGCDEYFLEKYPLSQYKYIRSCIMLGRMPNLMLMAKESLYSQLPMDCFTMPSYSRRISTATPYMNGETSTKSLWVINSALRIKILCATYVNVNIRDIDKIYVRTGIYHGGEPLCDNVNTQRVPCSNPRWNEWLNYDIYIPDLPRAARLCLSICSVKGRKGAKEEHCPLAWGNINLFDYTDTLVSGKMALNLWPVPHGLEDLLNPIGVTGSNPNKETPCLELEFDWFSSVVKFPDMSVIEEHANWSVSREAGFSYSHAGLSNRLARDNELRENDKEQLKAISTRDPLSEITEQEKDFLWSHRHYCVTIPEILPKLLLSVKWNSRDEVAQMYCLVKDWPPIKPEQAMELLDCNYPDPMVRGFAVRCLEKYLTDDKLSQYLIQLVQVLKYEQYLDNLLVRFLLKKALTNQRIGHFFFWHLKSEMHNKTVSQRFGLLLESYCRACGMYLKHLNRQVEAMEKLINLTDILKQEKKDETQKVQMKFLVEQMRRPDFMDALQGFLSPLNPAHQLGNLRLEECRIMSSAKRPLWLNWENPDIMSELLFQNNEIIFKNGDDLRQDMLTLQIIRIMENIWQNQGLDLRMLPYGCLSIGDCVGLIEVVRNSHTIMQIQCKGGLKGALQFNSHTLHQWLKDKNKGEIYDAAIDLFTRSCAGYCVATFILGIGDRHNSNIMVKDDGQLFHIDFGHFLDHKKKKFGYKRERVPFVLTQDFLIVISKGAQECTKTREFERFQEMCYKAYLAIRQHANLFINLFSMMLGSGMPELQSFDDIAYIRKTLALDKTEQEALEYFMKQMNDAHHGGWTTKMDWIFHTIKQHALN
protocolNotes: Inhibition of N-terminal His6-tagged recombinant full-length human p110alpha/untagged recombinant full length human p85alpha expressed in baculovirus infected Sf21 cells using phosphatidylinositol as substrate in presence of gamma-32P-ATP after 5 mins by thin layer chromatographic method

1. Cc1cccc2cc(Cn3nc(I)c4c(N)ncnc43)n(C)c(=O)c12: > 10 µM
2. Cc1cccc2cc(Cn3nc(-c4cc(O)cc(F)c4)c4c(N)ncnc43)n(-c3ccccc3OCCN3CCOCC3)c(=O)c12: < 10 µM
3. COc1ccc(-c2nn(Cc3cc4cccc(C)c4c(=O)n3-c3ccccc3C)c3ncnc(N)c23)cc1: > 10 µM
4. Cc1ccccc1-n1c(Cn2nc(-c3ccn[nH]3)c3c(N)ncnc32)cc2cccc(C)c2c1=O: > 10 µM

Shift focus to the following entry.
input: Could you share which IC50 value was measured for Cc1cccc2cc(Cn3nc(-c4cn[nH]c4)c4c(N)ncnc43)n(-c3ccccc3C(C)C)c(=O)c12 ?
output: < 10 µM

* * *

testTarget: PI3K p110 beta/p85 alpha (Homo sapiens)
protocolNotes: Inhibition of N-terminal His6-tagged recombinant full-length human p110beta/untagged recombinant full length p85alpha expressed in baculovirus infected Sf21 cells using phosphatidylinositol as substrate in presence of gamma-32P-ATP after 5 mins by thin layer chromatographic method
measuredMetric: IC50

1. Cc1ccccc1-n1c(Cn2nc(-c3ccc4ncnc(N)c4c3)c3c(N)ncnc32)cc2cccc(C)c2c1=O: > 10 µM
2. Cc1cccnc1-n1c(Cn2nc(-c3cccc(O)c3)c3c(N)ncnc32)cc2cccc(C)c2c1=O: > 10 µM
3. Cc1ccccc1-n1c(Cn2nc(I)c3c(N)ncnc32)cc2cccc(F)c2c1=O: > 10 µM

input: Please report the recorded IC50 for Cc1ccccc1-n1c(Cn2nc(C#N)c3c(N)ncnc32)cc2cccc(C)c2c1=O .
output: > 10 µM

input: I'd like to know its IC50. The molecule in question is Cc1ccncc1-n1c(Cn2nc(I)c3c(N)ncnc32)cc2cccc(C)c2c1=O
output: > 10 µM

input: Look up IC50 for this molecule: Cc1ccccc1-n1c(Cn2nc(C#C[C@@H](C)O)c3c(N)ncnc32)cc2cccc(C)c2c1=O
output: > 10 µM

input: Request the reported IC50 associated with Cc1cccc2cc([C@H](C)Nc3ncnc4[nH]cc(F)c34)n(-c3ccccc3)c(=O)c12
output: < 0.1 µM

input: # query: IC50 of entry Cc1cccc2cc([C@H](C)Nc3ncnc4[nH]cc(C(N)=O)c34)n(C3CC3)c(=O)c12
output: < 0.1 µM

input: Could you share which IC50 value was measured for C=Cc1nn(Cc2cc3cccc(C)c3c(=O)n2-c2ccccc2F)c2ncnc(N)c12 ?
output: > 10 µM

input: Give its IC50 value. Item: C=Cc1nn(Cc2cc3cccc(C)c3c(=O)n2-c2ccccc2C)c2ncnc(N)c12
output: > 10 µM

input: Any idea what its IC50 is? The molecule is Cc1ccccc1-n1c(Cn2nc(-c3cn[nH]c3)c3c(N)ncnc32)cc2ccccc2c1=O
output: > 10 µM

input: Recorded IC50 of Cc1ccccc1-n1c(Cn2nc(C#CC3CC3)c3c(N)ncnc32)cc2cccc(C)c2c1=O , please.
output: > 10 µM
